The measured values listed here are drawn from patent US10947205B2.

Recorded IC50 values for a group of molecules are listed next.
System: mitochondrial protein synthesis in HepG2 cells (COX-I / SDH-A)
Assay: Mitochondrial protein synthesis assay
Format: cell-based
Details: Homo sapiens, 96 h; HepG2 cells, 4 days, ratio of COX-1 to SDH-A levels; read-out: MPS IC50_μM
Method: Inhibition of mitochondrial protein synthesis was assessed in HepG2 cells by comparing the levels of two subunits of oxidative phosphorylation enzyme complexes, subunit I of Complex IV (COX-I) and the 70 kDa subunit of Complex II (SDH-A). COX-I is mitochondrial DNA encoded and SDH-A is nuclear DNA encoded. […] Inhibition of mitochondrial protein synthesis was expressed as a ratio of COX-1 to SDH-A levels. […]
measurement-name: IC50

NC[C@H]1CN(c2ccc(-c3cccc(C(N)=O)c3)c(F)c2)C(=O)O1: > 20 µM
NC[C@H]1CN(c2ccc(-c3cnc(N4CCCOCC4)nc3)c(F)c2)C(=O)O1: > 25 µM
CSc1ccc(-c2ccc(N3C[C@H](Cn4cnnn4)OC3=O)cc2F)cc1: > 20 µM
NC[C@H]1CN(c2cc(F)c(N3CCOCC3)c(F)c2)C(=O)O1: > 20 µM
CSc1ccc(-c2ccc(N3C[C@H](CNC(=O)C4CC4)OC3=O)cc2F)cc1: 8 µM

---

system: mitochondrial protein synthesis in HepG2 cells (COX-I / SDH-A); assay: Mitochondrial protein synthesis assay; type: cell-based; details: Homo sapiens, HepG2, 96 h, read-out: MPS IC50_μM
measurement-name: IC50

CC(=O)NC[C@H]1CN(c2ccc(N3CCn4ncnc4C3)cc2)C(=O)O1: > 20 µM
CCNC(=O)NC[C@H]1CN(c2ccc(-c3ccc(SC)cc3)c(F)c2)C(=O)O1: > 20 µM
CSc1ccc(-c2ncc(N3C[C@H](CNC(C)=O)OC3=O)cc2F)cc1: > 15 µM

---

Recorded IC50 values for a group of compounds are listed next.
test system: mitochondrial protein synthesis in HepG2 cells (COX-I / SDH-A); assay: Mitochondrial protein synthesis assay; format: cell-based; details: Homo sapiens, 96 h; HepG2 cells, 4 days, ratio of COX-1 to SDH-A levels; read-out: MPS IC50_μM
measurement-name: IC50

CSc1ccc(-c2ccc(N3C[C@H](COc4ccon4)OC3=O)cc2F)cc1: > 20 µM
NC[C@H]1CN(c2ccc(-c3cnn4ncccc34)c(F)c2)C(=O)O1: > 20 µM
O=C1O[C@@H](Cn2ccnn2)CN1c1ccc(-c2ccc(N3CCNCC3)nc2)c(F)c1: > 20 µM
CSc1ccc(-c2c(F)cc(N3C[C@H](CNC(C)=O)OC3=O)cc2F)cc1: > 20 µM
C[S+]([O-])c1ccc(-c2ccc(N3C[C@H](CN)OC3=O)cc2F)cc1 (stereo partly drawn): > 20 µM
NCC(=O)NC[C@H]1CN(c2ccc(-c3ccc(C(N)=O)cc3)c(F)c2)C(=O)O1: 50 µM
Cn1cc(-c2ccc(N3C[C@H](CN)OC3=O)cc2F)cn1: > 20 µM
NC[C@H]1CN(c2ccc(-c3ccnc(Cl)c3)c(F)c2)C(=O)O1: > 20 µM
NC[C@H]1CN(c2ccc(-c3ccc(C4CC4)nc3)c(F)c2)C(=O)O1: > 20 µM
NC[C@H]1CN(c2ccc(-c3cccc([N+](=O)[O-])c3)c(F)c2)C(=O)O1: > 20 µM
NC[C@H]1CN(c2ccc(-c3ccc(S(N)(=O)=O)cc3)c(F)c2)C(=O)O1: > 20 µM
CS(=O)(=O)c1ccc(-c2ccc(N3C[C@H](CN)OC3=O)cc2F)cc1: 22 µM
CSc1cccc(-c2ccc(N3C[C@H](CN)OC3=O)cc2F)c1: > 20 µM
NC[C@H]1CN(c2ccc(-c3cncnc3)c(F)c2)C(=O)O1: > 20 µM
CSc1ccc(-c2ccc(N3C[C@H](Cn4cccn4)OC3=O)cc2F)cc1: > 20 µM
COC(=O)NC[C@H]1CN(c2ccc(-c3ccc(SC)cc3)c(F)c2)C(=O)O1: 10 µM
NC[C@H]1CN(c2ccc(-c3ccc(Cl)nc3)c(F)c2)C(=O)O1: > 20 µM
CSc1ncc(-c2ccc(N3C[C@H](CN)OC3=O)cc2F)cn1: > 20 µM

---

Test system: mitochondrial protein synthesis in HepG2 cells (COX-I / SDH-A)
Experiment: Mitochondrial protein synthesis assay
Format: cell-based
Conditions: Homo sapiens, 96 h; HepG2 cells, 4 days, ratio of COX-1 to SDH-A levels; read-out: MPS IC50_μM
Method: Inhibition of mitochondrial protein synthesis was assessed in HepG2 cells by comparing the levels of two subunits of oxidative phosphorylation enzyme complexes, subunit I of Complex IV (COX-I) and the 70 kDa subunit of Complex II (SDH-A). COX-I is mitochondrial DNA encoded and SDH-A is nuclear DNA encoded. […] Inhibition of mitochondrial protein synthesis was expressed as a ratio of COX-1 to SDH-A levels. […]
pIC50: −log10 of the molar value.
measurement-name: pIC50

N#Cc1cccc(-c2ccc(N3C[C@H](CN)OC3=O)cc2F)c1: < 4.70
NC[C@H]1CN(c2ccc(-c3cccc(N4CCS(=O)(=O)CC4)c3)c(F)c2)C(=O)O1: 4.60
CCOC(=O)NC[C@H]1CN(c2ccc(-c3ccc(SC)cc3)c(F)c2)C(=O)O1: 4.74
CS(=N)(=O)c1ccc(-c2ccc(N3C[C@H](Cn4ccnn4)OC3=O)cc2F)cc1 (stereo partly drawn): < 4.70
NC[C@H]1CN(c2ccc(-c3ccn4ncnc4c3)c(F)c2)C(=O)O1: < 4.70
NC[C@H]1CN(c2ccc(-c3ccccc3)c(F)c2)C(=O)O1: < 4.70
CSc1ccc(-c2ccc(N3C[C@H](Cn4occc4=O)OC3=O)cc2F)cc1: < 4.70
CC(C)(C)OC(=O)N1CC=C(c2ccc(N3C[C@H](CN)OC3=O)cc2F)CC1: < 4.70
NC[C@H]1CN(c2ccc(-c3ccc(F)nc3)c(F)c2)C(=O)O1: < 4.70

---

system: mitochondrial protein synthesis in HepG2 cells (COX-I / SDH-A); assay: Mitochondrial protein synthesis assay; format: cell-based; conditions: Homo sapiens, 96 h; HepG2 cells, 4 days, ratio of COX-1 to SDH-A levels; read-out: MPS IC50_μM
pIC50: −log10 of the molar value.
measurement-name: pIC50

NC[C@H]1CN(c2ccc(-c3ccnc4[nH]ccc34)c(F)c2)C(=O)O1: < 4.70
CC(C)(O)c1ncc(-c2ccc(N3C[C@H](CN)OC3=O)cc2F)s1: < 4.70
NCc1ccc(F)c(-c2ccc(N3C[C@H](Cn4ccnn4)OC3=O)cc2F)c1: < 4.70
NC[C@H]1CN(c2cnc(N3CCS(=O)(=O)CC3)c(F)c2)C(=O)O1: < 4.00
N#Cc1ccc(-c2ccc(N3C[C@H](CN)OC3=O)cc2F)cc1: < 4.70
NC[C@H]1CN(c2ccc(-c3ccc4ncnn4c3)c(F)c2)C(=O)O1: < 4.70
NC[C@H]1CN(c2ccc(-c3ccc4nncn4c3)c(F)c2)C(=O)O1: < 4.70
CSc1ccc(-c2ccc(N3C[C@H](CN)OC3=O)cc2F)cc1: 4.91
CS(=O)(=O)Nc1ccc(-c2ccc(N3C[C@H](CN)OC3=O)cc2F)cc1: < 4.70

---

system: mitochondrial protein synthesis in HepG2 cells (COX-I / SDH-A); test: Mitochondrial protein synthesis assay; type: cell-based; details: Homo sapiens, 96 h; HepG2 cells, 4 days, ratio of COX-1 to SDH-A levels; read-out: MPS IC50_μM
pIC50: −log10 of the molar value.
measurement-name: pIC50

CSc1ccc(-c2ccc(N3C[C@H](Cn4cncn4)OC3=O)cc2F)cc1: < 4.70
NC[C@H]1CN(c2ccc(-c3ccn[nH]3)c(F)c2)C(=O)O1: < 4.70
CC(=O)NC[C@H]1CN(c2ccc(N3CCOCC3)c(F)c2)C(=O)O1 [linezolid, reference compound]: 5.10
NC[C@H]1CN(c2ccc(-c3ccc(C(N)=O)cc3)c(F)c2)C(=O)O1: < 4.60
NC[C@H]1CN(c2ccc(-c3cccnc3)c(F)c2)C(=O)O1: < 4.70
COc1ncc(-c2ccc(N3C[C@H](CN)OC3=O)cc2F)cn1: < 4.00
NC[C@H]1CN(c2ccc(-c3ccc4cc[nH]c4c3)c(F)c2)C(=O)O1: < 4.30
NC[C@H]1CN(c2ccc(-c3cccs3)c(F)c2)C(=O)O1: < 4.70
NC[C@H]1CN(c2ccc(-c3ccc4c(c3)CNC4=O)c(F)c2)C(=O)O1: < 4.70
